Field: zone of inhibition at 50 µg/disc. Provide a value for each of the compounds that follow.
Test system: Nakaseomyces glabratus
protocolNotes: Antifungal activity against Candida glabrata ATCC 15126 assessed as growth inhibition zone at 50 ug after 24 hrs by Kirby-Bauer agar diffusion assay
Type: functional
experimentalParameters: ATCC 15126, 24 h, read-out: IZ
Note: unit mm is implicit; provide only the numeric part.

// zone of inhibition at 50 µg/disc (Nakaseomyces glabratus) for CO[C@H]1C(=O)N(SC)[C@H]1c1ccc(Cl)cc1 = 0

// zone of inhibition at 50 µg/disc (Nakaseomyces glabratus) for CO[C@H]1C(=O)N(SC)[C@H]1c1cccc(Br)c1 = 17

// zone of inhibition at 50 µg/disc (Nakaseomyces glabratus) for CO[C@H]1C(=O)N(SC)[C@H]1c1ccccc1I = 20

// zone of inhibition at 50 µg/disc (Nakaseomyces glabratus) for CO[C@H]1C(=O)N(SC)[C@H]1c1ccc(F)cc1 = 0

// zone of inhibition at 50 µg/disc (Nakaseomyces glabratus) for CCC(C)SN1C(=O)[C@H](OC)[C@@H]1c1ccccc1Cl (stereo not given in full) = 0

// zone of inhibition at 50 µg/disc (Nakaseomyces glabratus) for CO[C@H]1C(=O)N(SC)[C@H]1c1cccc(Cl)c1 = 21

// zone of inhibition at 50 µg/disc (Nakaseomyces glabratus) for CO[C@H]1C(=O)N(SC)[C@H]1c1cc(F)cc(F)c1F = 11

// zone of inhibition at 50 µg/disc (Nakaseomyces glabratus) for CO[C@H]1C(=O)N(SC)[C@H]1/C=C/c1ccccc1 = 16

// zone of inhibition at 50 µg/disc (Nakaseomyces glabratus) for CSN1C(=O)[C@H](OC(C)=O)[C@@H]1CCc1ccccc1 = 15

// zone of inhibition at 50 µg/disc (Nakaseomyces glabratus) for CO[C@H]1C(=O)N(SC)[C@H]1c1ccccc1F = 0

// zone of inhibition at 50 µg/disc (Nakaseomyces glabratus) for CO[C@H]1C(=O)N(SC)[C@H]1c1ccc(Br)cc1 = 19

// zone of inhibition at 50 µg/disc (Nakaseomyces glabratus) for CSN1C(=O)[C@H](OC(C)=O)[C@@H]1c1ccccc1 = 0

// zone of inhibition at 50 µg/disc (Nakaseomyces glabratus) for CSN1C(=O)[C@H](OC(C)=O)[C@@H]1/C=C/c1ccccc1 = 14

// zone of inhibition at 50 µg/disc (Nakaseomyces glabratus) for CSN1C(=O)[C@H](Oc2ccccc2)[C@@H]1CCc1ccccc1 = 18

// zone of inhibition at 50 µg/disc (Nakaseomyces glabratus) for CO[C@H]1C(=O)N(SC)[C@H]1c1ccc(Cl)cc1Cl = 32

// zone of inhibition at 50 µg/disc (Nakaseomyces glabratus) for CSN1C(=O)[C@@H](OC(C)=O)[C@H]1c1ccccc1 = 0

// zone of inhibition at 50 µg/disc (Nakaseomyces glabratus) for CO[C@H]1C(=O)N(SC)[C@H]1c1ccccc1Cl = 25

// zone of inhibition at 50 µg/disc (Nakaseomyces glabratus) for CO[C@H]1C(=O)N(SC)[C@H]1c1cc(F)c(F)c(F)c1 = 18

// zone of inhibition at 50 µg/disc (Nakaseomyces glabratus) for CSN1C(=O)[C@H](Oc2ccccc2)[C@@H]1/C=C/c1ccccc1 = 9

// zone of inhibition at 50 µg/disc (Nakaseomyces glabratus) for CO[C@H]1C(=O)N(SC)[C@H]1c1cc(Cl)cc(Cl)c1Cl = 31
